- Test system: Sonic hedgehog protein (Shh)
- method.description: small-molecule binders of Shh protein, primary screen, biochemical, small-molecule microarray, 635/667 nm fluorescence (AID 1151);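 also: Shh protein binding to compounds spotted on small-molecule microarray slides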
- protocol.conditions: small-molecule microarray binding, 635 nm fluorescence; higher = more signal
Please enter YES where composite z-score is greater than or equal to 0.08, and NO where it is lower.

COc1ccc(C#Cc2ccc3c(c2)[C@]2(C(=O)N3)[C@H](C(=O)N3CCCCCCC3)[C@H]3C(=O)O[C@H](c4ccccc4)[C@H](c4ccccc4)N3[C@@H]2c2ccc(O)cc2)cc1 ... YES
COC(=O)[C@@]1(Cc2ccc(OC)cc2)[C@H]2c3cc(C(=O)N4CCCC4)n(Cc4ccc(S(C)(=O)=O)cc4)c3C[C@H]2CN1C(=O)c1ccccc1 ... NO
COC(=O)C1=CC(CCCO)=CC(C)N(Cc2cccc(OC(F)(F)F)c2)C=C1C(=O)OC (stereo unspecified) ... NO

INPUT: // inclusive: composite z-score at least 0.08? input: COc1ccc(C(O)C2C=CC3C(=O)N(c4ccccc4)C(=O)C3N2Nc2ccc(C(C)C)cc2)c2ccccc12 (stereo unspecified)
OUTPUT: NO

INPUT: Determine whether this molecule has composite z-score no lower than 0.08: COCC(=C=CC[C@@H](O)c1ccc(OCCO)cc1)CCO
OUTPUT: YES

INPUT: Please indicate if the recorded composite z-score for C[C@]1(C(=O)NCCN2CCOCC2)c2ccccc2C(=O)N(Cc2cc(F)cc(C(F)(F)F)c2)[C@H]1c1ccc(CO)cc1 meets or exceeds 0.08.
OUTPUT: YES

INPUT: Test whether the molecule CC(C)=CCCC(C)=CC(O)C1C=CC2C(=O)N(c3ccccc3)C(=O)C2N1Nc1ccccc1F (stereo unspecified) records composite z-score of 0.08 or higher.
OUTPUT: YES

INPUT: Determine whether measured composite z-score meets or exceeds 0.08 for O=C1OCCC/C=C\[C@H]2OC34C=CCN(c5ccc6ccccc6c5)C(=O)[C@H]3N(CCCO)C(=O)[C@@H]4C12 (stereo partly specified)
OUTPUT: NO

INPUT: Quick check: does CC(C)[Si]1(C(C)C)OCc2cc(-c3ccc(-c4ccc(Cl)c(Cl)c4)o3)nc(CCc3ccccc3)c21 have composite z-score greater than or equal to 0.08?
OUTPUT: YES
